Reference for the values: PubChem BioAssay

method_summary: RPMI8226 myeloma cell viability, profiling panel, resazurin fluorescence, basal, 24 h, PK04 Diversity Set (AID 1180);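 also: RPMI8826 multiple myeloma cell line at 5000 cells per well; test concentration not given here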
run_parameters: higher = more signal
Output class 1 for z-score not less than -0.7; output class 0 otherwise.

{"compound": "CO[C@H]1O[C@H](CO)[C@@H](OC(=O)Nc2ccc3c(c2)OCO3)[C@H](OC(=O)c2cc3ccccc3[nH]2)[C@H]1OC(=O)c1cc2ccccc2[nH]1", "qualitative_label": "class 0"}
{"compound": "COc1ccc([Si](C)(C)[C@@H]2[C@@H](CCO)O[C@]3(C(=O)N(Cc4ccc(N5CCCCC5=O)cc4)c4ccccc43)[C@H]2C)cc1", "qualitative_label": "class 0"}
{"compound": "N#Cc1ccc(C(O)C2C=CC3C(=O)N(c4ccccc4)C(=O)C3N2Nc2ccccc2)cc1 (configuration not stated)", "qualitative_label": "class 1"}
{"compound": "Cc1ccc(S[C@]2(C(=O)O)CC(=O)N(Cc3cc(C(F)(F)F)cc(C(F)(F)F)c3)[C@@H]2c2ccc(CO)cc2)cc1", "qualitative_label": "class 1"}
{"compound": "C=C(/C(=C/C[C@H](OC(=O)c1ccncc1)c1ccc(CO)o1)c1cc(C(=O)OC)ccc1OC)C(C)C", "qualitative_label": "class 0"}
{"compound": "COCCOC(=O)N1C(=O)[C@@]2(c3cc(C#CC4=CCCCC4)ccc31)[C@H](C(N)=O)[C@H]1C(=O)O[C@H](c3ccccc3)[C@H](c3ccccc3)N1[C@@H]2c1ccccc1OCCO", "qualitative_label": "class 0"}
